test: yeast display, Sf9 membrane polyspecificity reagent, FACS + sequencing; frameworks hold sequencing errors
Measured Attribute: polyreactivity (PSR sort gate)

Before answering, review these 4 worked examples.
[[record]]
seq_text = "QVQLVESGGGLVQAGGSLRLSCAASGRIFAAYAMGWYRQAPGKERELVAAISWSGANTYYADSVKGRFTISRDNAKNTVYLQMNSLKPEDTAVYYCATLSKSYGVRRYKSDYWGQGTQVTVSS"
result = "high polyreactivity"

[[record]]
seq_text = "QVQLVESGGGLVQAGGSLRLICSASGSIIEHYAMGWYRQAPGKERELVAAISWCGASTYYADSVKGRFTISRDNAKNTVYLQWYSLKPEDTAVYYCAAVFYGGGKRYYYWGQGTQVTVSS"
result = "high polyreactivity"

[[record]]
seq_text = "QVQLVESGGGLVQAGGSLRLSCAASGSIFWSYAMGWYRQAPGKERELVAVINWSGGSTYYADSVKGRFTISRDNAKNTVYLQMTSLKPEDTAVYYCNKDLGPTKRPFTFDYWGQGTQVTVSS"
result = "low polyreactivity"

[[record]]
seq_text = "QVQLVESGGGLVQAGCSLRLSCAASGSIFYGYAMGWYRQAPGKERELVARITGSGGDTSYADSVKGRFTISRDNAKNTVYLQMNSLKPEDTAVYYCNTDLYITYTLYTGSEYDYWGQGTQVTVSS"
result = "low polyreactivity"


We next turn to a different sequence, shown below.
# input Determine its reported polyreactivity (PSR sort gate): QVQLVESGGGLVQAGGSLRLSCAASGRIFPFYAMGWYRQAPGKERELVAAITQSGGSTYYADSVKGRFTISRDNAKNTVYLQMNSLKPEDTAVYYCAADYGSFLYGYPTYDYWGQGTQVTVSS
# output low polyreactivity
